B1: tRNA (parent)
chain: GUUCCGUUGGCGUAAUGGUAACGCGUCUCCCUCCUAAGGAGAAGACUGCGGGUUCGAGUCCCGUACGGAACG

- Variants of: B1
- Assay: yeast fitness, log relative to wild type (ln ratio); higher = fitter; tRNA-Arg(CCU), competitive growth, 37 C, 1 M NaCl
Observable: yeast fitness (ln)
One number for each entry.

Worked cases, answers included:
GUUCCAUUGGCGUAAUGGUAACGCGUCUCCCUCCUAAGGAGAAGACUGCGGGUUCGAGUCCCGUAAGGAUCG :: -0.158
AGUCCGUUGGCGUAAUGGUAACGCGUCUCCCUCCUAAGGAGACGACUGCGGGUUCGAGUCCCGUAAGGAUCG :: -0.12
GGUCCGUUGGCGUAAUGGUAACGCGUUUCCCUCCUAAGGAGAAGACUGCGGGUUCGAGUCCCGUAUGGGGUG :: -0.264
AGUCCGUUGGCGUAAUGGUAACGCGUCUCCCUCCUAAGGAGAAGAUUGCGGGUUCGAGUCCCGUAAGGAGCG :: -0.152

I have 5 variants here; please give me yeast fitness (ln) for each one.
1. GGUCCGUUGGCGUAAUGGUAACGCGUCUCCCUCCUAAGGAGACGACUGCGGGUUCGAGUCCCGUAUGGAAUG
2. AGUCCGUUGGCGUAAUGGUAACGCGUCUCCCUCCUAAGGAGAAGACUGCGGGUUCGAGUCCCGUAUGGAACG
3. ACUCCUUUGGCGUAAUGGUAACGCGUCUCCCUCCUAAGGAGAAGACUGCGGGUUCGAGUCCCGUAUGGAUUG
4. GCUCCUUUGGCGUAAUGGUAACGCGUCUCCCUCCUAAGGAGAAGAUUGCGGGUUCGAGUCCCGUAUGGAACG
5. GGUCCUUUGGCGUAAUGGUAACGCGUUUCCCUCCUAAGGAGAAGAUUGCGGGUUCGAGUCCCGUAAGGGUCG

a:
[-0.343, -0.159, -0.095, -0.12, -0.0283]

Data credit: the RNAGym collection of RNA variant scans (doi:10.1038/s41586-018-0170-7)
